# measured.on: T1, human Protein S (human, UniProt P07225 42-676)
# T1 construct: Called 'full length Protein S' / 'human full-length Protein S'; It was coated on plates (ELISA), Eu-labeled (LANCE) or immobilized on a chip (Biacore); also called PS; full length Protein S
# T1 sequence: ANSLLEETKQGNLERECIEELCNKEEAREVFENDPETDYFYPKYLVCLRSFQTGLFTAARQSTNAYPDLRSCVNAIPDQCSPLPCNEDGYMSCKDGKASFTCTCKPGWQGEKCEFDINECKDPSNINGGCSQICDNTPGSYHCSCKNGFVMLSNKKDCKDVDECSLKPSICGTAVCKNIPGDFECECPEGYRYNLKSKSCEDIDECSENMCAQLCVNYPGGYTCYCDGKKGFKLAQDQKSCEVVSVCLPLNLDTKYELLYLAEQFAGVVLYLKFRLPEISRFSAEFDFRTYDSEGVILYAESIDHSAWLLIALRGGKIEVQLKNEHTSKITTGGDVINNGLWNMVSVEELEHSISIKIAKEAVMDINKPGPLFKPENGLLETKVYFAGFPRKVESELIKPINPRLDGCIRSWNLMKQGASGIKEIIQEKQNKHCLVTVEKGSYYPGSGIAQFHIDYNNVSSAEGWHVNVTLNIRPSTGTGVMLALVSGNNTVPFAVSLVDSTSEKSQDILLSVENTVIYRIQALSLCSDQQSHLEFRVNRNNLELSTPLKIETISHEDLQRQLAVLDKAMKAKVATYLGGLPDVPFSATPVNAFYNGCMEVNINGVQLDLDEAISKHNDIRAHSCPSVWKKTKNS
# test.description: Biacore (SPR), Protein S immobilized
400Mal‑PEG = 40 kD PEG moiety attached via maleimide
observable: Kd (nM)
Just the number please, in nM, no unit attached.

Fill blank: measured Kd of the binder Ac-HWYVSAGWYDYNEDKYYEFE-NH2 [JBS3306] is ____.
0.4

Proceed to Ac-AIYVTAGWYDYNNDTYYEFT-NH2 [JBS3283]
0.4

Try the binder Ac-EYIVTAGWYDYNKDIYYEFK-NH2 [JBS3263]
0.4

How about Ac-EYYVSAGWYDYNTDTYYEFEC(400Mal‑PEG)-NH2 (JBS3319 conjugated to a 40 kD PEG moiety) [JBS3318] ?
1.4
